Data credit: patent US20200369728A1

System: SJSA-1 cells
methodSummary: Cell lysis by peptidomimetic macrocycles (LDH release)
Assay type: cell-based
condition: 50 μM, SJSA-1, 1 h
Bridge positions count the residues as written; N and C are the ends. Square brackets hold non-standard residues; d marks the D form. Peptide text beside a SMILES is read from it. R8 = C=CCCCCCC[C@@](C)(N)C(=O)O; S5 = C=CCCC[C@](C)(N)C(=O)O; Nle = CCCC[C@H](N)C(=O)O
Some compounds, each annotated with its measured 50 μM % Lysed cells (1 h LDH).
Please give a number only; it is taken to be in %.

compound="CC(=O)N[C@@H](CC(C)C)C(=O)N[C@H](C(=O)N[C@@H](Cc1ccccc1)C(=O)N[C@]1(C)CCCCCCC=CCCC[C@@](C)(C(=O)N[C@@H](C)C(=O)N[C@@H](C)C(=O)N[C@@H](C)C(=O)N[C@@H](C)C(=O)N[C@H](C)C(N)=O)NC(=O)[C@H](CC(C)C)NC(=O)[C@H](CCC(N)=O)NC(=O)[C@H](C)NC(=O)[C@H](Cc2c[nH]c3ccccc23)NC(=O)[C@H](Cc2ccc(O)cc2)NC(=O)[C@H](C)NC1=O)[C@@H](C)O [compound 233]" propertylabel="50 μM % Lysed cells (1 h LDH)" val=6
compound="CC(=O)N[C@@H](CC(C)C)C(=O)N[C@H](C(=O)N[C@@H](Cc1ccccc1)C(=O)N[C@]1(C)CCCCCCC=CCCC[C@@](C)(C(=O)N[C@@H](CO)C(=O)N[C@@H](CC(C)C)C(=O)N[C@@H](C)C(N)=O)NC(=O)[C@H](CC(C)C)NC(=O)[C@H](CCC(N)=O)NC(=O)[C@H](C)NC(=O)[C@H](Cc2c[nH]c3ccccc23)NC(=O)[C@H](Cc2ccc(O)cc2)NC(=O)[C@H](C)NC1=O)[C@@H](C)O (single isomer, unassigned) [compound 118]" propertylabel="50 μM % Lysed cells (1 h LDH)" val=4
compound="CC(=O)N[C@@H](CC(C)C)C(=O)N[C@H](C(=O)N[C@@H](Cc1ccccc1)C(=O)N[C@]1(C)CCCCCCC=CCCC[C@@](C)(C(=O)N[C@@H](C)C(=O)N[C@@H](Cc2c[nH]cn2)C(=O)N[C@@H](Cc2ccccc2)C(=O)N[C@@H](C)C(N)=O)NC(=O)[C@H](CC(C)C)NC(=O)[C@H](CCC(N)=O)NC(=O)[C@H](C(C)C)NC(=O)[C@H](Cc2c[nH]c3ccccc23)NC(=O)[C@H](Cc2c[nH]cn2)NC(=O)[C@H](C)NC1=O)[C@@H](C)O [compound 190] (Ac-LTF[R8]AHWVQL[S5]AHFA-NH2; staple 4-11)" propertylabel="50 μM % Lysed cells (1 h LDH)" val=1
compound="CC(=O)N[C@@H](CC(C)C)C(=O)N[C@H](C(=O)N[C@@H](Cc1ccccc1)C(=O)N[C@]1(C)CCCCCCC=CCCC[C@@](C)(C(=O)N[C@@H](CO)C(=O)N[C@@H](C)C(=O)N[C@@H](Cc2ccccc2)C(N)=O)NC(=O)[C@H](CC(C)C)NC(=O)[C@H](CCC(N)=O)NC(=O)[C@H](C)NC(=O)[C@H](Cc2c[nH]c3ccccc23)NC(=O)[C@H](Cc2ccc(O)cc2)NC(=O)[C@H](C)NC1=O)[C@@H](C)O [compound 7] (Ac-LTF[R8]AYWAQL[S5]SAF-NH2; staple 4-11)" propertylabel="50 μM % Lysed cells (1 h LDH)" val=0

Here is another compound to look at.
Challenge: Note down 50 μM % Lysed cells (1 h LDH) recorded for CCCC[C@H](NC(=O)[C@H](C)NC(=O)[C@H](CCC(N)=O)NC(=O)[C@H](Cc1c[nH]cn1)NC(=O)[C@]1(C)CCCC=CCCCCCC[C@@](C)(NC(=O)[C@H](Cc2ccccc2)NC(C)=O)C(=O)N[C@@H](C)C(=O)N[C@@H](Cc2ccc(O)cc2)C(=O)N[C@@H](Cc2c[nH]c3ccccc23)C(=O)N[C@@H](CO)C(=O)N[C@@H](C)C(=O)N[C@@H](CC(C)C)C(=O)N1)C(N)=O [compound 39] (Ac-F[R8]AYWSAL[S5]HQA[Nle]-NH2; staple 2-9)
Response given: 3
